Assay method text: Inhibition of IL-1beta-induced PGE2 production in human HCA-7 cells after 72 hrs by EIA
Type: functional, cell-based
Experimental conditions: HCA-7, 72 h
Measurement type: EC50 (nM)
Respond with the bare value in nM.

COc1ccc(N(C)c2nnc(-c3ccccc3)c3ccccc23)cc1 :: 220

Prompt line: Quick one: EC50 for Cc1ccc(Nc2nnc(-c3ccc(N(C)C)cc3)c3ccccc23)cc1 ?
Response line: 420

Prompt line: Quick one: EC50 for COc1ccc(-c2nnc(N(C)c3ccc(C)cc3)c3ccccc23)cc1 ?
Response line: 50

Prompt line: Quick one: EC50 for COc1ccc(-c2nnc(Nc3cccc(C)c3)c3ccccc23)cc1 ?
Response line: 640

Prompt line: Quick one: EC50 for CCc1ccc(Nc2nnc(-c3ccc(OC)cc3)c3ccccc23)cc1 ?
Response line: 930

Prompt line: Quick one: EC50 for Cc1ccc(Nc2nnc(-c3ccc(OC(C)C)cc3)c3ccccc23)cc1 ?
Response line: 700

Prompt line: Quick one: EC50 for CCOc1ccc(-c2nnc(Nc3ccc(C)cc3)c3ccccc23)cc1 ?
Response line: 570

* * *

Tested on: HCA-7 cells (Homo sapiens)
Assay method text: Inhibition of PGE2 production in human HCA-7 cells
Measurement type: EC50 (nM)
Respond with the bare value in nM.

Prompt line: Quick one: EC50 for Clc1ccc(-c2csc(Nc3ccc(Oc4ccccc4)cc3)n2)cc1 ?
Response line: 330

* * *

Documented log10 of EC50 across a set of compounds
Assay method text: Inhibition of IL-1beta-induced PGE2 production in human HCA-7 cells after 72 hrs by EIA
Assay type: functional, cell-based
Experimental conditions: HCA-7, 72 h
Kindly note that the scale is log10 and the underlying EC50 is in nM.

Solved cases below.
COc1ccccc1-c1nnc(Nc2ccc(C)cc2)c2ccccc12 :: 2.77
Cc1cccc(Nc2nnc(-c3ccccc3)c3ccccc23)c1 :: 2.88
Clc1ccc(-c2csc(Nc3ccc(Oc4ccccc4)cc3)n2)cc1 :: 2.52
COc1ccc(-c2nnc(Nc3ccc(C)cc3)c3ccccc23)cc1 :: 1.51
Cc1ccc(Nc2nnc(-c3cccc(-c4ccccc4)c3)c3ccccc23)cc1 :: 2.73

Prompt line: Quick one: log10 of EC50 for COc1ccc(-c2nnc(Nc3ccc(Oc4ccccc4)cc3)c3ccccc23)cc1 ?
Response line: 1.95

Prompt line: Quick one: log10 of EC50 for Cc1ccc(Nc2nnc(-c3cccc(Cl)c3)c3ccccc23)cc1 ?
Response line: 2.93

Prompt line: Quick one: log10 of EC50 for Clc1cccc(Nc2nnc(-c3ccccc3)c3ccccc23)c1 ?
Response line: 2.70

Prompt line: Quick one: log10 of EC50 for Cc1ccc(Nc2nnc(-c3ccccc3Cl)c3ccccc23)cc1 ?
Response line: 2.58

Prompt line: Quick one: log10 of EC50 for COc1ccc(-c2nnc(Nc3ccccc3)c3ccccc23)cc1 ?
Response line: 1.30

Prompt line: Quick one: log10 of EC50 for Cc1ccc(Nc2nnc(-c3ccccc3)c3ccccc23)cc1 ?
Response line: 1.49

* * *

Tested on: COX-2 (Prostaglandin G/H synthase 2) (Homo sapiens, UniProt P35354)
Sequence (P35354 whole entry): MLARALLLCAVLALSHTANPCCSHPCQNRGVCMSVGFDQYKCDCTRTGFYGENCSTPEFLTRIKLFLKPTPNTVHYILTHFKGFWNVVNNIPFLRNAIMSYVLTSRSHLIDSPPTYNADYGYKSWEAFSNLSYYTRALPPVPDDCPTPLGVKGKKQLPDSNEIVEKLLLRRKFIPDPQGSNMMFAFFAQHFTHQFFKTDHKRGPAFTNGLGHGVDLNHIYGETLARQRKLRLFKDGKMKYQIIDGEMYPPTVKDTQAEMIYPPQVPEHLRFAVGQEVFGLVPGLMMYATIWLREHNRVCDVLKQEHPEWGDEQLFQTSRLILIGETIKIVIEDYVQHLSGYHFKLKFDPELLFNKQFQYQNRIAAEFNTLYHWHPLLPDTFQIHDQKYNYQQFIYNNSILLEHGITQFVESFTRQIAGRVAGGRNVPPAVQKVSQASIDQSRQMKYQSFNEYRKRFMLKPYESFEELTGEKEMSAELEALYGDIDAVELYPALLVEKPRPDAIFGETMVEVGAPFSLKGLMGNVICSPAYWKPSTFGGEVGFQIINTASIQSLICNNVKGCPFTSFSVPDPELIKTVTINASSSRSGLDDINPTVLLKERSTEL
Assay method text: Inhibition of COX-2 (unknown origin) at 5 uM
Measurement type: inhibition at 5 µM (%)
Respond with the bare value in %.

Cc1ccc(Nc2nnc(-c3ccccc3)c3ccccc23)cc1 :: 23
Cc1ccc(Nc2nnc(-c3ccc(N(C)C)cc3)c3ccccc23)cc1 :: 14.2

Prompt line: Quick one: inhibition at 5 µM for COc1ccc(-c2nnc(Nc3ccccc3)c3ccccc23)cc1 ?
Response line: 3

Prompt line: Quick one: inhibition at 5 µM for COc1ccc(N(C)c2nnc(-c3ccccc3)c3ccccc23)cc1 ?
Response line: 21.4

Prompt line: Quick one: inhibition at 5 µM for Clc1cccc(Nc2nnc(-c3ccccc3)c3ccccc23)c1 ?
Response line: 10.1
